B1: tRNA (parent)
chain: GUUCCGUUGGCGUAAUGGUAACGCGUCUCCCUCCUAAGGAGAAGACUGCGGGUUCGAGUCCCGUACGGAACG

variants of: B1; assay: yeast fitness relative to wild type (ratio to wild type); higher = fitter; tRNA-Arg(CCU), competitive growth, 37 C, YPD
This sample holds only a part of the variants without activity.
Each entry gets no if its yeast fitness stays under 0.7, and yes if its yeast fitness is 0.7 or above.

Reference set (8 entries):
// query Could you tell me if the measured yeast fitness of G12A C24G C62G reaches 0.7 or more?
// result no

// query Could you tell me if the measured yeast fitness of A42U A69G reaches 0.7 or more?
// result yes

// query Could you tell me if the measured yeast fitness of C49U U53A reaches 0.7 or more?
// result yes

// query Could you tell me if the measured yeast fitness of C34U A42C A43U reaches 0.7 or more?
// result no

// query Could you tell me if the measured yeast fitness of U16A C33G C49A reaches 0.7 or more?
// result no

// query Could you tell me if the measured yeast fitness of C34U G44C U47G reaches 0.7 or more?
// result no

// query Could you tell me if the measured yeast fitness of A14C G17C G18A G23C A57C reaches 0.7 or more?
// result no

// query Could you tell me if the measured yeast fitness of G10C A14U reaches 0.7 or more?
// result no

---
// query Could you tell me if the measured yeast fitness of G9A G23C A45G reaches 0.7 or more?
// result no

// query Could you tell me if the measured yeast fitness of A37C A42C A69U reaches 0.7 or more?
// result yes

// query Could you tell me if the measured yeast fitness of C5A G23A C24U A36C reaches 0.7 or more?
// result no
